Biological target: Bile acid receptor (Mus musculus) (UniProt Q60641)
Sequence (Q60641 whole entry): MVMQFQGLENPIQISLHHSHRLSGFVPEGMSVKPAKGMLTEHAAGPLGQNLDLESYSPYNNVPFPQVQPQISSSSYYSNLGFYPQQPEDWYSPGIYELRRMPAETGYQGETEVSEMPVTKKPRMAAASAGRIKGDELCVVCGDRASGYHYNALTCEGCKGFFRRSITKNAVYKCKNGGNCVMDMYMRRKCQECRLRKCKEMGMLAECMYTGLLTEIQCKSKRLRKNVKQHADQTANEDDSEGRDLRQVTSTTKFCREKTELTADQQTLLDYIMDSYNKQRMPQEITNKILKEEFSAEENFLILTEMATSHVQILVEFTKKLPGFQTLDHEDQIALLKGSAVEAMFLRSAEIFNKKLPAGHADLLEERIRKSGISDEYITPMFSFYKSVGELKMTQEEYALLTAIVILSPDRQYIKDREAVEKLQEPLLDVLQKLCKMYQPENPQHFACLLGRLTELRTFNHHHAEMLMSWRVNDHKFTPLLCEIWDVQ
Assay: Agonist activity at mouse chimeric FXR assessed as receptor transactivation by luciferase transcriptional reporter gene assay relative to GW-4064
Assay type: functional
Set-up: concentration or dose not given beside the values
Assay Readout: Activity (%)

> print(dat)
                                test.smiles  observed.result
1  Cc1cc(OCc2c(-c3c(Cl)c[n+]([O-])cc3Cl)noc2C(C)C)ccc1-c1ccc2c(C(=O)O)cn(C)c2c1             88.5
2  Cc1cc(OCc2c(-c3ccn(C)c(=O)c3Cl)noc2C(C)C)ccc1-c1ccc2c(C(=O)O)cn(C)c2c1               17
3  Cc1cc(OCc2c(-c3[nH]c(=O)ccc3Cl)noc2C(C)C)ccc1-c1ccc2c(C(=O)O)cn(C)c2c1                8
4  Cc1cc(OCc2c(-c3c(Cl)ccc(=O)n3C)noc2C(C)C)ccc1-c1ccc2c(C(=O)O)cn(C)c2c1               39
5  Cc1cc(OCc2c(-c3c(Cl)cn(C)c(=O)c3Cl)noc2C(C)C)ccc1-c1ccc2c(C(=O)O)cn(C)c2c1               15

[I] CC(C)c1onc(-c2c(Cl)cncc2Cl)c1COc1ccc(/C=C/c2cccc(C(=O)O)c2)c(Cl)c1
[II] COc1ccccc1-c1noc(C(C)C)c1COc1ccc(/C=C/c2cccc(C(=O)O)c2)c(Cl)c1
Please compare: I and II . Report which one has the smaller Activity value. # answer = label of selected item
II

----------
Biological target: Bile acid receptor (Homo sapiens)
Experiment: Agonist activity at chimeric FXR assessed as receptor transactivation by luciferase transcriptional reporter gene assay relative to GW-4064
Format: functional
Set-up: concentration or dose not given beside the values
Assay Readout: Activity (%)

Below are worked cases with known answers.
> print(dat)
                                test.smiles                     assayed.system  observed.result
1  Cc1cc(OCc2c(-c3c(Cl)c[n+]([O-])cc3Cl)noc2C(C)C)ccc1-c1ccc2c(C(=O)O)cn(C)c2c1  Bile acid receptor (Homo sapiens)             53.7
2  Cc1cc(OCc2c(-c3c(Cl)ccc(=O)n3C)noc2C(C)C)ccc1-c1ccc2c(C(=O)O)cn(C)c2c1  Bile acid receptor (Homo sapiens)               27

[1] COc1ccc(Cl)c(-c2noc(C(C)C)c2COc2ccc(-c3ccc4c(C(=O)O)cn(C)c4c3)c(C)c2)n1
[2] CC(C)c1onc(-c2c(Cl)cncc2Cl)c1COc1ccc(/C=C/c2cccc(C(=O)O)c2)c(Cl)c1
Which shows the larger Activity value: 1 or 2 ? # answer = label of selected item
2
(2: 59.4%, 1: 23%)

----------
Test: Permeability by PAMPA method
Format: ADME
Details: read-out: permeability
Assay Readout: Papp (×10⁻⁶ cm/s)

> print(dat)
                                test.smiles  assay.readout  unit.abbreviation  observed.result
1  CC(C)c1onc(-c2c(Cl)cncc2Cl)c1COc1ccc(/C=C/c2cccc(C(=O)O)c2)c(Cl)c1           Papp         ×10⁻⁶ cm/s             0.09

[I] Cc1cc(OCc2c(-c3c(Cl)c[n+]([O-])cc3Cl)noc2C(C)C)ccc1-c1ccc2c(C(=O)O)cn(C)c2c1
[II] Cc1cc(OCc2c(-c3c(Cl)cncc3Cl)noc2C(C)C)ccc1-c1ccc2c(C(=O)O)cn(C)c2c1
[III] COc1ccc(Cl)c(-c2noc(C(C)C)c2COc2ccc(-c3ccc4c(C(=O)O)cn(C)c4c3)c(C)c2)n1
Task for the reader: rank each entry by its Papp, from the minimum upward. Use the labels to give the requested order.
II, III, I
(II: 0.19 ×10⁻⁶ cm/s, III: 0.7 ×10⁻⁶ cm/s, I: 587 ×10⁻⁶ cm/s)
